- Experimental system: HIV-1 protease (Human immunodeficiency virus type 1 group M subtype B)
- Procedure text: biochemical
- Assay conditions: dose 100.000 uM

- Compound: "CC(c1cccc(C(=O)NCc2nc3ccccc3[nH]2)c1)c1c(O)c2ccccc2oc1=O (centres unmarked)"
  Unit symbol: "%"
  HIV-1 Protease % Inhib: 80
- Compound: "CCC(c1cccc(NC(=O)CCNC(=O)OC(C)(C)C)c1)c1c(O)c2ccccc2oc1=O (centres unmarked)"
  Unit symbol: "%"
  HIV-1 Protease % Inhib: 104.2
- Compound: "CCC(c1cccc(OC)c1)c1c(O)c2ccccc2oc1=O (centres unmarked)"
  Unit symbol: "%"
  HIV-1 Protease % Inhib: 75.63
- Compound: "CCC(c1ccc(OCC(O)CO)cc1)c1c(O)c2ccccc2oc1=O (centres unmarked)"
  Unit symbol: "%"
  HIV-1 Protease % Inhib: 40.3
- Compound: "CCC(c1ccc(OC)cc1)c1c(O)c2ccccc2oc1=O (centres unmarked)"
  Unit symbol: "%"
  HIV-1 Protease % Inhib: 82.45

====

- Experimental system: HIV-1 protease (Human immunodeficiency virus type 1 group M subtype B, UniProt P04585)
- Procedure text: biochemical
- Assay conditions: read-out: HIV-1 FITC KI
pKi: −log10 of the molar value.
Label Criterion met when pKi >= 8; otherwise Criterion not met.

- Compound: "O=c1oc2c(c(O)c1C(c1cccc(NS(=O)(=O)c3ccc(-c4ccon4)s3)c1)C1CC1)CCCCCC2 (centres unmarked)"
  Experimental system: "HIV-1 protease (Human immunodeficiency virus type 1 group M subtype B, UniProt P04585)"
  Class: "Criterion met"
- Compound: "O=c1oc2c(c(O)c1C(c1ccccc1)C1CC1)CCCCC2CC1CC1 (centres unmarked)"
  Experimental system: "HIV-1 protease (Human immunodeficiency virus type 1 group M subtype B, UniProt P04585)"
  Class: "Criterion not met"
- Compound: "CCCC1CCCCCc2c1oc(=O)c([C@@H](c1ccccc1)C1CC1)c2O (mixture of isomers)"
  Experimental system: "HIV-1 protease (Human immunodeficiency virus type 1 group M subtype B, UniProt P04585)"
  Class: "Criterion not met"
- Compound: "O=C(Nc1cccc(C(c2c(O)c3c(oc2=O)CCCCCC3)C2CC2)c1)c1ccc(F)cc1 (centres unmarked)"
  Experimental system: "HIV-1 protease (Human immunodeficiency virus type 1 group M subtype B, UniProt P04585)"
  Class: "Criterion not met"
- Compound: "CCC(c1cccs1)c1c(O)c2c(oc1=O)CCCCCC2 (centres unmarked)"
  Experimental system: "HIV-1 protease (Human immunodeficiency virus type 1 group M subtype B, UniProt P04585)"
  Class: "Criterion not met"
- Compound: "CC(C)CC(c1cccc(NS(=O)(=O)c2cn(C)cn2)c1)c1c(O)c2c(oc1=O)CCCCCC2 (centres unmarked)"
  Experimental system: "HIV-1 protease (Human immunodeficiency virus type 1 group M subtype B, UniProt P04585)"
  Class: "Criterion met"

====

Reported values of inhibition at 0.37 µM for individual entries
- Experimental system: HIV-1 protease (Human immunodeficiency virus type 1 group M subtype B)
- Procedure text: biochemical
- Assay conditions: read-out: HIV-1 Protease % Inhib, dose 0.370 uM

- Compound: "CC(=O)Nc1ccc(S(=O)(=O)Nc2cccc(C(c3c(O)c4c(oc3=O)CCCCCC4)C3CC3)c2)cc1 (stereo not drawn)"
  inhibition at 0.37 µM: "66.5%"
- Compound: "CCCCC(c1cccc(NS(=O)(=O)c2ccc(C#N)cc2)c1)c1c(O)c2c(oc1=O)CCCCCC2 (stereo not drawn)"
  inhibition at 0.37 µM: "104%"
- Compound: "O=c1oc2c(c(O)c1C(c1cccc(NS(=O)(=O)c3ccc(Cl)cc3Cl)c1)C1CC1)CCCCCC2 (stereo not drawn)"
  inhibition at 0.37 µM: "86.2%"
- Compound: "O=c1oc2c(c(O)c1C(c1cccc(NS(=O)(=O)C=Cc3ccccc3)c1)C1CC1)CCCCCC2 (stereo not drawn)"
  inhibition at 0.37 µM: "78.5%"
- Compound: "O=C(CCn1ccc2ccccc21)Nc1cccc(C(c2c(O)c3ccccc3oc2=O)C2CC2)c1 (stereo not drawn)"
  inhibition at 0.37 µM: "12.4%"
- Compound: "CC(C)CC1CCCCCc2c1oc(=O)c(C(c1ccccc1)C1CC1)c2O (stereo not drawn)"
  inhibition at 0.37 µM: "74.2%"
- Compound: "O=c1oc2c(c(O)c1C(c1cccc(NS(=O)(=O)c3cc(C(F)(F)F)cc(C(F)(F)F)c3)c1)C1CC1)CCCCCC2 (stereo not drawn)"
  inhibition at 0.37 µM: "39.3%"
- Compound: "CC(C)C(c1cccc(NS(=O)(=O)c2ccc(C#N)cc2)c1)c1c(O)c2c(oc1=O)CCCCCC2 (stereo not drawn)"
  inhibition at 0.37 µM: "91.3%"
- Compound: "O=C(Nc1cccc(C(c2c(O)c3c(oc2=O)CCCCCC3)C2CC2)c1)c1ccc(F)cc1 (stereo not drawn)"
  inhibition at 0.37 µM: "31.5%"
- Compound: "O=c1oc2c(c(O)c1C(c1cccc(NS(=O)(=O)c3cc(Cl)ccc3Cl)c1)C1CC1)CCCCCC2 (stereo not drawn)"
  inhibition at 0.37 µM: "16.7%"
- Compound: "CCS(=O)(=O)Nc1cccc(C(c2c(O)c3c(oc2=O)CCCCC3)C2CC2)c1 (stereo not drawn)"
  inhibition at 0.37 µM: "31.1%"
- Compound: "CCC(c1cccc(NC(=O)CCNC(=O)OC(C)(C)C)c1)c1c(O)c2c(oc1=O)CCCCCC2 (stereo not drawn)"
  inhibition at 0.37 µM: "81%"
- Compound: "O=c1oc2c(c(O)c1C(c1cccc(NS(=O)(=O)c3cccc(S(=O)(=O)N(Cc4ccccc4)Cc4ccccc4)c3)c1)C1CC1)CCCCCC2 (stereo not drawn)"
  inhibition at 0.37 µM: "17.4%"
- Compound: "O=c1oc2c(c(O)c1[C@@H](c1cccc(NS(=O)(=O)c3cccc4cccnc34)c1)C1CC1)CCCCCC2"
  inhibition at 0.37 µM: "91.7%"
- Compound: "O=c1oc2c(c(O)c1C(c1cccc(NS(=O)(=O)c3cc(Br)c(Br)s3)c1)C1CC1)CCCCCC2 (stereo not drawn)"
  inhibition at 0.37 µM: "96.5%"
